Tested on: RCM-1 (Colorectal Carcinoma)
measurement_notes: combination Emax (second highest fraction inhibited in the dose matrix, 72 h); higher = more inhibition; extreme values may be limits of the assay
measurement_name: combination Emax

C=CCn1c(=O)c2cnc(Nc3ccc(N4CCN(C)CC4)cc3)nc2n1-c1cccc(C(C)(C)O)n1 [AZD1775] + O=C(c1cc(Cc2n[nH]c(=O)c3ccccc23)ccc1F)N1CCN(C(=O)C2CC2)CC1 [Olaparib] (first compound max 1 µM, partner max 10 µM)	0.518
CN(CCO)CC[C@H](CSc1ccccc1)Nc1ccc(S(=O)(=O)NC(=O)c2ccc(N3CCC([C@@H](O)c4ccccc4-c4ccc(Cl)cc4)CC3)cc2)cc1S(=O)(=O)C(F)(F)F [AZD4320] + CCN(CCO)CCCOc1ccc2c(Nc3cc(CC(=O)Nc4cccc(F)c4)[nH]n3)ncnc2c1 [AZD2811] (first compound max 1 µM, 7x7, partner max 1 µM)	0.545
Cc1cc2ncnn2cc1Nc1ncc2c(n1)n(C1CCOCC1)c(=O)n2C [AZD7648] + CCN(CCO)CCCOc1ccc2c(Nc3cc(CC(=O)Nc4cccc(F)c4)[nH]n3)ncnc2c1 [AZD2811] (first compound max 10 µM, 7x7, partner max 1 µM)	0.316
NC1(C(=O)N[C@@H](CCO)c2ccc(Cl)cc2)CCN(c2ncnc3[nH]ccc23)CC1 [Capivasertib] + COc1nnc2ccc(N3CCC(c4ccc(OCCN5CCN(C)C(=O)[C@H]5C)cc4)CC3)nn12 [AZD5153] (first compound max 10 µM, 7x7, partner max 1 µM)	0.613
COc1cccc2c1C(=O)c1c(O)c3c(c(O)c1C2=O)C[C@@](O)(C(=O)CO)C[C@@H]3O[C@H]1C[C@H](N)[C@H](O)[C@H](C)O1 [Doxorubicin] + Cc1cc2ncnn2cc1Nc1ncc2c(n1)n(C1CCOCC1)c(=O)n2C [AZD7648] (first compound max 1 µM, 7x7, partner max 10 µM)	0.605
C=CCn1c(=O)c2cnc(Nc3ccc(N4CCN(C)CC4)cc3)nc2n1-c1cccc(C(C)(C)O)n1 [AZD1775] + Nc1ccn([C@@H]2O[C@H](CO)[C@@H](O)C2(F)F)c(=O)n1 [Gemcitabine] (first compound max 1 µM, partner max 0.3 µM)	0.593
CC1(C)CCC(CN2CCN(c3ccc(C(=O)NS(=O)(=O)c4ccc(NCC5CCOCC5)c([N+](=O)[O-])c4)c(Oc4cnc5[nH]ccc5c4)c3)CC2)=C(c2ccc(Cl)cc2)C1 [Venetoclax] + C[C@@H]1COCCN1C2=NC(=NC(=C2)C3(CC3)[S@](=N)(=O)C)C4=C5C=CNC5=NC=C4 [AZD6738] (first compound max 1 µM, 7x7, partner max 10 µM)	0.78
